system: PPARg:RXRa IVT, anti-PPARg (NR concentration 270 nM, RXRa partner concentration 90 nM); test: PBM binding z-score (relative to random genomic background probes); higher = stronger binding; sequences stand for … in GC…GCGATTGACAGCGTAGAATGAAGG
Below is a list of entries, each paired with its recorded PBM binding z-score value.
assay_endpoint: PBM binding z-score

In [3]: df
Out[3]:
                        input_sequence  obs_value
 0  ATACCAAGGTGATCGTGAGGTGGTTGATACTAAC      0.996
 1  CGTCCAAGGTCAATGGTAGGTCAGTGAAAGCATT       3.95
 2  TCTATTAGTTGCAGGGCAACCGACGAGTCCGTTT       1.01
 3  TAGCCTAGGTCGGATCGGGCCAGTATACGCTATA     -0.327
 4  CATACAGGGTCAGCTAGGCCAGCGTAGGGACGGC       2.23
 5  GCTATTAGTTGAAAGGGAAACCGAATGATTCTCG     0.0307
 6  CGTCCAAGGTCATAGCAGGTCAGTGAAGACAGAT       4.67
 7  CCTAGCAGGCCAGGGTAACTCAAGCATTTCGCTT    -0.0636
 8  TCTAGCACGCCAGAGGGTCACTCAAGAGGTACGG     0.0659
 9  CCGACTGGGGCAAAGGTTACCATACTCAGTACGA          6
10  CCTTCTGGGCCATCAGGTCATTGATATCAACGTT       5.03
11  ATACCAAGGTGATCGTGAGCTCGTTGATACTAAC       1.08
12  TTACCAATGTGAGCTGAGGTCGTTGATCCAACTC    -0.0612
13  TCTAATAGTTGAAGGGCAACCGACGAGTCCGTTT      0.129
14  CCTTACGGGTCACTGACAGGTTATCGCATTTGGA       3.69
15  GCAGACAGGTGACACGCAGGTAACTCAGGGTGGC       1.21
16  AGAACGAGGGCAATGACTTGATAGCACGGGTGGC       2.49
17  TCTCGGAGGAGACGAAAGGTCAGAGCTCGACATC       1.49
18  CCAGACAGGTTAAAGGTAACTCAGTCTGGTACGC       1.86
19  ATCTCTAGGTAAAGGTAGTTCAGTGAATGCAAAT        2.3
20  TCTATTAGTTGATTAGGGCAACCAAAACAGCGGA       1.72
21  CGTCCAAGGTCATCAGGTCAGTGAAAGCGACGTG       4.54
22  TCTAGCAGGCCAGAGGATCACTCAAGAGGTACGG     -0.268
23  TATACAGGGTCAAAGGCCAGAGTTCGAATGTCGA       4.54
24  TCTATTAGGTGAAGGGCAACCGACGAGTCCGTTT       4.75
25  CCAGAGAGGTGAGAAGGTAACTCAGCCTCGATTA       1.69
26  TTTCCAAGGTGAAGGTCGTTGATCCCTCTGTAGA        3.3
27  TCTCGGCGGACACGAAGGTCAGAGCTTTCCAGAG      0.291
